The reported numbers originate from PubChem BioAssay AID1508601.

EXPERIMENT_DESCRIPTION: nuclear p53 accumulation, HPV+ cells – imaging, p53-positive nuclei imaging, 24 h, 48 h (AID 1508601)
TEST_PARAMETERS: 24/48 h, measured here: cell number at 48 h, Library stock concentration: 3.333 mM
Hit rate of the full screen: of about 5,700 compounds, about 85 (1%) were called active. The entries come from a sample that favours actives as a whole.
READOUT_LABEL: nuclei count, normalised (%)
Report only the number, with the unit % understood.

Some solved entries appear below for comparison.
1. N#CSc1cc(SC#N)c(N)nc1N | 62.1
2. CN(NC(=O)CC(=O)NN(C)C(=S)c1ccccc1)C(=S)c1ccccc1 | 48.4
3. CCOC(=O)c1sc(NC(=O)c2ccco2)c(SC#N)c1C | 106
4. CCCCCCCCCCCCCC=CC(O)C(CO)N(C)C (stereo unspecified) | 109
5. C=C1C(=O)OC(CCCCCCCC)C1C(=O)O (stereo unspecified) | 112

Turning now to a further record.
Task item: Entry Nc1ccn(C2OC(CO)C(O)C2F)c(=O)n1 (stereo unspecified) has what nuclei count, normalised?
Reply: 45.1
